Let's look at some molecules and their measured growth.
Tested on: CCRF-CEM leukemia
Assay: NCI-60 one-dose screen, 48 h (100 = growth as untreated, 0 = no growth, -100 = all killed)
Conditions: 10 µM
The panel holds about 83,000 compounds, 20% with a hit somewhere; the sample as a whole holds those more often.
READOUT_LABEL: growth (%)

>  <ENTRY_SMILES>
CN1CCN(c2ccc(C(=O)/C=C/c3cc(Br)ccc3F)cc2)CC1

>  <UNIT_INFO>
%

>  <REPORTED_VALUE>
-11.4

$$$$
>  <ENTRY_SMILES>
N[C@@H](CSSC[C@H](N)C(=O)Nc1ccc(OCC2CCCC2)cc1)C(=O)Nc1ccc(OCC2CCCC2)cc1

>  <UNIT_INFO>
%

>  <REPORTED_VALUE>
-60.5

$$$$
>  <ENTRY_SMILES>
CCCCSc1nc(Nc2ccc(/C(C)=N/NC(N)=S)cc2)c(C#N)c(-c2ccccc2)n1

>  <UNIT_INFO>
%

>  <REPORTED_VALUE>
49.2

$$$$
>  <ENTRY_SMILES>
Cc1ccc(C(=O)CSc2nnc(-c3c[nH]c4ccccc34)n2-c2ccccc2)cc1

>  <UNIT_INFO>
%

>  <REPORTED_VALUE>
60.8

$$$$
>  <ENTRY_SMILES>
N#Cc1c(Cl)nc(SCc2ccc(F)cc2)nc1-c1ccc(F)cc1

>  <UNIT_INFO>
%

>  <REPORTED_VALUE>
86.7

$$$$
>  <ENTRY_SMILES>
CC(C)c1ccc(C(=O)Nc2sc3c(c2C(N)=O)CCC(=O)C3=O)cc1

>  <UNIT_INFO>
%

>  <REPORTED_VALUE>
86.4

$$$$
>  <ENTRY_SMILES>
CC(=C(c1ccc(OCCN2CCCCC2)cc1)c1ccc(OCCN2CCCCC2)cc1)c1ccccc1

>  <UNIT_INFO>
%

>  <REPORTED_VALUE>
-19.2

$$$$
>  <ENTRY_SMILES>
CC(=O)c1cc(C(=O)N2c3ccccc3Sc3ccccc32)n2ccc(C)cc12

>  <UNIT_INFO>
%

>  <REPORTED_VALUE>
24.8

$$$$
>  <ENTRY_SMILES>
COc1ccc(-c2nc(S(=O)(=O)c3ccc(C)cc3)c(S(=O)(=O)CC(=O)N(C)Cc3ccccc3)o2)cc1

>  <UNIT_INFO>
%

>  <REPORTED_VALUE>
-35.9

$$$$
